# TEST METHOD NOTES: Tissue distribution after single or repeated oral administration (7 or 14 days) in mice
# Type: in vivo, ICR mice
# CONDITION SET: ICR, mouse, kidney, po, 1 mg/kg, repeated dose for 7 days, kidney, read-out: AUC Ratio (AUC48 h, tissue / AUC48 h, plasma)
VALUE KIND: Kp

STRUCTURE	VALUE KIND	REPORTED
OC[C@H]1O[C@@H](c2cc(Cc3ccc(C4CC4)cc3)c(Cl)c3c2CCO3)[C@H](O)[C@@H](O)[C@@H]1O	Kp	37.6

====

# TEST METHOD NOTES: Pharmacokinetics after intravenous injection in mice
# Assay type: in vivo, ICR mice
# CONDITION SET: ICR, mouse, IV 0.3 mg/kg, plasma

STRUCTURE	AUC(0-t), µg·h/mL
OC[C@H]1O[C@@H](c2cc(Cc3ccc(C4CC4)cc3)c(Cl)c3c2CCO3)[C@H](O)[C@@H](O)[C@@H]1O	0.479
